# Test system: 422866-222-R5-J1-PDC spheroids with HUVEC/MSC, viability
# PROTOCOL_DESCRIPTION: Anticancer human tumor 422866-222-R5-J1-PDC patient-derived pancreatic adenocarcinoma cell line growth inhibition [GQUAD]
# ASSAY_SETUP: second compound 0.316 µM; first compound 3.16 µM; active compounds read low
# maps each entry to its viability, T/C
Numbers only; they are read as %.

Example molecules with recorded viability, T/C:
MOLECULE	VALUE_OBSERVED
COc1ccc([C@@H](O)c2cc(-c3ncnc4cc(N5CCOCC5)ccc34)c(F)cc2Cl)nn1 + Cc1cnc(CNC(=O)c2c(=O)c3ccc(N4CCCN(C)CC4)nc3n3c2sc2ccccc23)cn1	54
CC1COCCN1c1cc(-c2ccnn2C)c2ccnc(-c3ccn[nH]3)c2n1 (stereo not given) + Cc1[nH]c2ccc(F)cc2c1-c1nc2c3cccnc3c3ncccc3c2[nH]1	66
C#Cc1c(F)ccc2cc(O)cc(-c3ncc4c(N5CC6CCC(C5)N6)nc(OCC56CCCN5CC(F)C6)nc4c3F)c12 (stereo not given) + CN(C)c1ccc(Nc2c3ccc(NC(=O)CCN4CCCC4)cc3nc3cc(NC(=O)CCN4CCCC4)ccc23)cc1	39.3
CCCS(=O)(=O)Nc1ccc(F)c(C(=O)c2c[nH]c3ncc(-c4ccc(Cl)cc4)cc23)c1F + Cc1cnc(CNC(=O)c2c(=O)c3ccc(N4CCCN(C)CC4)nc3n3c2sc2ccccc23)cn1	102

Q: Identify measured viability, T/C obtained with 422866-222-R5-J1-PDC spheroids with HUVEC/MSC, viability for CCCS(=O)(=O)Nc1ccc(F)c(C(=O)c2c[nH]c3ncc(-c4ccc(Cl)cc4)cc23)c1F + Cc1[nH]c2ccc(F)cc2c1-c1nc2c3cccnc3c3ncccc3c2[nH]1 .
Ans: 43.4

Q: Identify measured viability, T/C obtained with 422866-222-R5-J1-PDC spheroids with HUVEC/MSC, viability for CC(=O)O[C@H]1C(=O)[C@@]2(C)[C@H]([C@H](OC(=O)c3ccccc3)[C@]3(O)C[C@H](OC(=O)[C@H](O)[C@@H](NC(=O)c4ccccc4)c4ccccc4)C(C)=C1C3(C)C)[C@]1(OC(C)=O)CO[C@@H]1C[C@@H]2O + Cc1[nH]c2ccc(F)cc2c1-c1nc2c3cccnc3c3ncccc3c2[nH]1 .
Ans: 46.9

Q: Identify measured viability, T/C obtained with 422866-222-R5-J1-PDC spheroids with HUVEC/MSC, viability for CCCS(=O)(=O)Nc1ccc(F)c(C(=O)c2c[nH]c3ncc(-c4ccc(Cl)cc4)cc23)c1F + CN(C)c1ccc(Nc2c3ccc(NC(=O)CCN4CCCC4)cc3nc3cc(NC(=O)CCN4CCCC4)ccc23)cc1 .
Ans: 158

----------
# Test system: 422866-222-R5-J1-PDC spheroids with HUVEC/MSC, viability
# PROTOCOL_DESCRIPTION: Anticancer human tumor 422866-222-R5-J1-PDC cell line growth inhibition [GQUAD]; active means viability on the fitted dose curve at most 10% of control; inactive means the rest;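 note: spheroids exposed to compounds for seven days before reading; percent viability relative to DMSO vehicle control taken as 100%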
# ASSAY_SETUP: second compound 10 µM; first compound 10 µM
The reply should be one of these categories: 1 for active, -1 for inactive

COMPOUND	EXPERIMENTAL_TARGET	ASSIGNED_LABEL
COc1cccc2c1C(=O)c1c(O)c3c(c(O)c1C2=O)CC(O)(C(=O)CO)CC3OC1CC(N)C(O)C(C)O1 (stereo not given) + CN(C)c1ccc(Nc2c3ccc(NC(=O)CCN4CCCC4)cc3nc3cc(NC(=O)CCN4CCCC4)ccc23)cc1	422866-222-R5-J1-PDC spheroids with HUVEC/MSC, viability	-1
CC1COCCN1c1cc(-c2ccnn2C)c2ccnc(-c3ccn[nH]3)c2n1 (stereo not given) + CN(C)c1ccc(Nc2c3ccc(NC(=O)CCN4CCCC4)cc3nc3cc(NC(=O)CCN4CCCC4)ccc23)cc1	422866-222-R5-J1-PDC spheroids with HUVEC/MSC, viability	-1
CC(=O)O[C@H]1C(=O)[C@@]2(C)[C@H]([C@H](OC(=O)c3ccccc3)[C@]3(O)C[C@H](OC(=O)[C@H](O)[C@@H](NC(=O)c4ccccc4)c4ccccc4)C(C)=C1C3(C)C)[C@]1(OC(C)=O)CO[C@@H]1C[C@@H]2O + Cc1[nH]c2ccc(F)cc2c1-c1nc2c3cccnc3c3ncccc3c2[nH]1	422866-222-R5-J1-PDC spheroids with HUVEC/MSC, viability	1
O=c1[nH]cc(F)c(=O)[nH]1 + CN(C)c1ccc(Nc2c3ccc(NC(=O)CCN4CCCC4)cc3nc3cc(NC(=O)CCN4CCCC4)ccc23)cc1	422866-222-R5-J1-PDC spheroids with HUVEC/MSC, viability	-1

Note: attention shifts to another entry.
Q: Assay result, entry CC1COCCN1c1cc(C2(O)CC3CCC(C2)O3)c2cnn(-c3ccn[nH]3)c2n1 (stereo not given) + Cc1cnc(CNC(=O)c2c(=O)c3ccc(N4CCCN(C)CC4)nc3n3c2sc2ccccc23)cn1 — outcome?
Ans: -1

----------
# Tested on: 422866-222-R5-J1-PDC spheroids with HUVEC/MSC, viability
# PROTOCOL_DESCRIPTION: Anticancer human tumor 422866-222-R5-J1-PDC cell line growth inhibition [GQUAD];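 note: spheroids exposed to compounds for seven days before reading; percent viability relative to DMSO vehicle control taken as 100%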
# ASSAY_SETUP: second compound 3.16 µM; first compound 10 µM; active compounds read low
REPORTED_PROPERTY: viability, T/C (%)
Numbers only; they are read as %.

Example compounds with recorded viability, T/C:
COMPOUND	viability, T/C [%]
COc1ncnc(C2CC2)c1-c1ncc2cnn(Cc3ccc(-c4nc(C(F)(F)F)cn4C(C)C)cc3)c2n1 + CN(C)c1ccc(Nc2c3ccc(NC(=O)CCN4CCCC4)cc3nc3cc(NC(=O)CCN4CCCC4)ccc23)cc1	69.9
CCCS(=O)(=O)Nc1ccc(F)c(C(=O)c2c[nH]c3ncc(-c4ccc(Cl)cc4)cc23)c1F + Cc1cnc(CNC(=O)c2c(=O)c3ccc(N4CCCN(C)CC4)nc3n3c2sc2ccccc23)cn1	88.7
CCCS(=O)(=O)Nc1ccc(F)c(C(=O)c2c[nH]c3ncc(-c4ccc(Cl)cc4)cc23)c1F + CN(C)c1ccc(Nc2c3ccc(NC(=O)CCN4CCCC4)cc3nc3cc(NC(=O)CCN4CCCC4)ccc23)cc1	154
COc1cccc2c1C(=O)c1c(O)c3c(c(O)c1C2=O)CC(O)(C(=O)CO)CC3OC1CC(N)C(O)C(C)O1 (stereo unspecified) + Cc1[nH]c2ccc(F)cc2c1-c1nc2c3cccnc3c3ncccc3c2[nH]1	37.8
COc1ncnc(C2CC2)c1-c1ncc2cnn(Cc3ccc(-c4nc(C(F)(F)F)cn4C(C)C)cc3)c2n1 + Cc1cnc(CNC(=O)c2c(=O)c3ccc(N4CCCN(C)CC4)nc3n3c2sc2ccccc23)cn1	98
CC1COCCN1c1cc(C2(S(C)(=N)=O)CC2)nc(-c2ccnc3[nH]ccc23)n1 (stereo unspecified) + Cc1cnc(CNC(=O)c2c(=O)c3ccc(N4CCCN(C)CC4)nc3n3c2sc2ccccc23)cn1	71.6

Kindly consider the entry below.
Q: Identify measured viability, T/C obtained with 422866-222-R5-J1-PDC spheroids with HUVEC/MSC, viability for O=c1[nH]cc(F)c(=O)[nH]1 + CN(C)c1ccc(Nc2c3ccc(NC(=O)CCN4CCCC4)cc3nc3cc(NC(=O)CCN4CCCC4)ccc23)cc1 .
Ans: 53.6

----------
# Test system: 422866-222-R5-J1-PDC spheroids with HUVEC/MSC, viability
# PROTOCOL_DESCRIPTION: Anticancer human tumor 422866-222-R5-J1-PDC cell line growth inhibition [GQUAD];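 note: spheroids exposed to compounds for seven days before reading; percent viability relative to DMSO vehicle control taken as 100%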
# ASSAY_SETUP: second compound 0.1 µM; first compound 0.316 µM; active compounds read low
# maps each entry to its viability, T/C
Numbers only; they are read as %.

Example compounds with recorded viability, T/C:
COMPOUND	EXPERIMENTAL_TARGET	VALUE_OBSERVED
COc1ccc([C@@H](O)c2cc(-c3ncnc4cc(N5CCOCC5)ccc34)c(F)cc2Cl)nn1 + Cc1[nH]c2ccc(F)cc2c1-c1nc2c3cccnc3c3ncccc3c2[nH]1	422866-222-R5-J1-PDC spheroids with HUVEC/MSC, viability	68.6
CC1COCCN1c1cc(C2(O)CC3CCC(C2)O3)c2cnn(-c3ccn[nH]3)c2n1 (stereo unspecified) + Cc1[nH]c2ccc(F)cc2c1-c1nc2c3cccnc3c3ncccc3c2[nH]1	422866-222-R5-J1-PDC spheroids with HUVEC/MSC, viability	42.1
CCCS(=O)(=O)Nc1ccc(F)c(C(=O)c2c[nH]c3ncc(-c4ccc(Cl)cc4)cc23)c1F + Cc1[nH]c2ccc(F)cc2c1-c1nc2c3cccnc3c3ncccc3c2[nH]1	422866-222-R5-J1-PDC spheroids with HUVEC/MSC, viability	61.4
C#Cc1c(F)ccc2cc(O)cc(-c3ncc4c(N5CC6CCC(C5)N6)nc(OCC56CCCN5CC(F)C6)nc4c3F)c12 (stereo unspecified) + Cc1[nH]c2ccc(F)cc2c1-c1nc2c3cccnc3c3ncccc3c2[nH]1	422866-222-R5-J1-PDC spheroids with HUVEC/MSC, viability	98.4
CCc1c2c(nc3ccc(O)cc13)-c1cc3c(c(=O)n1C2)COC(=O)[C@]3(O)CC + CN(C)c1ccc(Nc2c3ccc(NC(=O)CCN4CCCC4)cc3nc3cc(NC(=O)CCN4CCCC4)ccc23)cc1	422866-222-R5-J1-PDC spheroids with HUVEC/MSC, viability	39.2

Q: Please give measured viability, T/C of the following entry: CC1COCCN1c1cc(-c2ccnn2C)c2ccnc(-c3ccn[nH]3)c2n1 (stereo unspecified) + Cc1[nH]c2ccc(F)cc2c1-c1nc2c3cccnc3c3ncccc3c2[nH]1
Ans: 41.6

Q: Please give measured viability, T/C of the following entry: CC1COCCN1c1cc(-c2ccnn2C)c2ccnc(-c3ccn[nH]3)c2n1 (stereo unspecified) + Cc1cnc(CNC(=O)c2c(=O)c3ccc(N4CCCN(C)CC4)nc3n3c2sc2ccccc23)cn1
Ans: 48.5

Q: Please give measured viability, T/C of the following entry: Cn1ncnc1[C@H]1c2n[nH]c(=O)c3cc(F)cc(c23)N[C@@H]1c1ccc(F)cc1 + CN(C)c1ccc(Nc2c3ccc(NC(=O)CCN4CCCC4)cc3nc3cc(NC(=O)CCN4CCCC4)ccc23)cc1
Ans: 75.7
